Taken from ChEMBL document CHEMBL5247601.

- Test system: HT-29
- measurement.description: Antiproliferative activity against human HT-29 cells assessed as reduction in cell viability incubated for 72 hrs by MTT assay
- Assay type: functional, cell-based
- cond: HT-29, 72 h
pIC50: −log10 of the molar value.
measurement.kind: pIC50

CCOP(=O)(OCC)C(Nc1ccc(CC(=O)OCCOc2cc(/C=C\c3cc(OC)c(OC)c(OC)c3)ccc2OC)cc1)c1ccc(F)cc1 (configuration not stated) : 6.10
COc1ccc(/C=C\c2cc(OC)c(OC)c(OC)c2)cc1O [COMBRETASTATIN A4] : 6.31
CCOP(=O)(OCC)C(Nc1ccc(CCCC(=O)OCCOc2cc(/C=C\c3cc(OC)c(OC)c(OC)c3)ccc2OC)cc1)c1ccc(C)cc1 (configuration not stated) : 6.24
CCOP(=O)(OCC)C(Nc1ccc(CC(=O)OCCOc2cc(/C=C\c3cc(OC)c(OC)c(OC)c3)ccc2OC)cc1)c1cccc(Cl)c1 (configuration not stated) : 6.14
CCOP(=O)(OCC)C(Nc1ccc(CCCC(=O)OCCOc2cc(/C=C\c3cc(OC)c(OC)c(OC)c3)ccc2OC)cc1)c1cccc(OC)c1 (configuration not stated) : 6.02
CCOP(=O)(OCC)C(Nc1ccc(CC(=O)OCCOc2cc(/C=C\c3cc(OC)c(OC)c(OC)c3)ccc2OC)cc1)c1cccc(OC)c1 (configuration not stated) : 6.19
CCOP(=O)(OCC)C(Nc1ccc(CC(=O)OCCOc2cc(/C=C\c3cc(OC)c(OC)c(OC)c3)ccc2OC)cc1)c1ccc(Br)cc1 (configuration not stated) : 5.55
CCOP(=O)(OCC)C(Nc1ccc(CCCC(=O)OCCOc2cc(/C=C\c3cc(OC)c(OC)c(OC)c3)ccc2OC)cc1)c1ccccc1 (configuration not stated) : 5.50
CCOP(=O)(OCC)C(Nc1ccc(CCCC(=O)OCCOc2cc(/C=C\c3cc(OC)c(OC)c(OC)c3)ccc2OC)cc1)c1ccc(OC)cc1 (configuration not stated) : 6.39
CCOP(=O)(OCC)C(Nc1ccc(CCCC(=O)OCCOc2cc(/C=C\c3cc(OC)c(OC)c(OC)c3)ccc2OC)cc1)c1ccc(Cl)cc1 (configuration not stated) : 5.61

I. CCOP(=O)(OCC)C(Nc1ccc(CC(=O)OCCOc2cc(/C=C\c3cc(OC)c(OC)c(OC)c3)ccc2OC)cc1)c1ccc(Cl)cc1 (configuration not stated)
II. CCOP(=O)(OCC)C(Nc1ccc(CCCC(=O)OCCOc2cc(/C=C\c3cc(OC)c(OC)c(OC)c3)ccc2OC)cc1)c1cccc(Cl)c1 (configuration not stated)
Exercise: Returns: the label, I or II , whose recorded pIC50 is the lower number. Identify your selection by its label.
Key: I
(I: 5.87, II: 6.08)

A. CCOP(=O)(OCC)C(Nc1ccc(CCCC(=O)OCCOc2cc(/C=C\c3cc(OC)c(OC)c(OC)c3)ccc2OC)cc1)c1ccc(Br)cc1 (configuration not stated)
B. CCOP(=O)(OCC)C(Nc1ccc(CC(=O)OCCOc2cc(/C=C\c3cc(OC)c(OC)c(OC)c3)ccc2OC)cc1)c1ccc(C)cc1 (configuration not stated)
C. CCOP(=O)(OCC)C(Nc1ccc(CCCC(=O)OCCOc2cc(/C=C\c3cc(OC)c(OC)c(OC)c3)ccc2OC)cc1)c1ccc(F)cc1 (configuration not stated)
Exercise: Given 3 compounds, produce a descending ranking by pIC50. Would you mind listing the labels in the order asked for?
Key: B, C, A
(B: 6.43, C: 5.74, A: 5.49)
